# Assay notes: in vitro
# Measurement setup: mouse, hepatocytes
Property: half-life (h)
The reply should contain only the number, in h.

Entry COc1cc(N2CCN(C)CC2)ccc1Nc1ncc2c(n1)N(C)c1ccccc1C(=O)N2 : reported half-life = ?
5.78

----------
# Assay notes: in vivo
# Measurement setup: CD1, mouse, iv, 3 mg/kg
Property: clearance (mL/min/kg)

Smiles notation: COc1cc2c(cc1Nc1ccc(Nc3ncc4c(n3)N(C)c3ccccc3C(=O)N4)cc1)CCN(C)C2
clearance, mL/min/kg: 120

(1) COc1cc(N2CCN(C)CC2)ccc1Nc1ncc2c(n1)N(C)c1ccccc1C(=O)N2C
(2) COc1cc(N2CCN(C)CC2)ccc1Nc1ncc2c(n1)N(C)c1ccccc1C(=O)N2
Decide: 1 or 2 , by lowest recorded clearance. Lab log: write the label of the selected item as the result.
1
(1: 25 mL/min/kg, 2: 150 mL/min/kg)

Taken from ChEMBL document CHEMBL4610057.
